# Assay System: GST-RAMANK1-CSL complex (human) (UniProt P46531)
# Protocol Summary: ALPHAscreen NTC competition: peptide titrated against Bio-sdnMAML1 binding to GST-RAMANK1-CSL; IC50 with 95% CI
Bridge positions count the residues as written; N and C are the ends. Square brackets hold non-standard residues; d marks the D form. Ends that are not written are not given here. dPhe(F5) = N[C@H](Cc1c(F)c(F)c(F)c(F)c1F)C(=O)O; S5 = C=CCCC[C@](C)(N)C(=O)O; βAla = NCCC(=O)O
Response field label takes MET when IC50 is strictly below 1000 nM and NOT MET in all other cases.

Worked examples follow.
Ac-W[βAla]ERLRRRI[S5]LCR[S5]HHSTCEARY (staple 10-14; cysteine pairing not given here) [SAHM1-24 (stapled peptide of the E21-Y41 scaffold)]
NOT MET
Ac-W[βAla]ERWRRRL[S5]LFR[S5]HHST[dPhe(F5)]EARY (staple 10-14) [SAHM1-35]
NOT MET
Ac-W[βAla]ERWRRRI[S5]FCR[S5]HHSTCEARY (staple 10-14; cysteine pairing not given here) [SAHM1-26]
MET
Ac-W[βAla]RELRREI[S5]LCR[S5]HHST (staple 10-14) [SAHM1-D1]
NOT MET
Ac-W[βAla]ERWRRRL[S5]WCR[S5]HHST[dPhe(F5)]EARY (staple 10-14) [SAHM1-43]
MET
Ac-W[βAla]ERWRRRL[S5]YCR[S5]HHST (staple 10-14) [SAHM1-47]
MET

Criterion: IC50 strictly below 1000 nM. Is it met by Ac-W[βAla]ERWRRRL[S5]YFR[S5]HHST[dPhe(F5)]EARY (staple 10-14) [SAHM1-60] ?
MET

Criterion: IC50 strictly below 1000 nM. Is it met by Ac-W[βAla]ELER[S5]HTF[S5]LHQR (staple 7-11) [SAHM5] ?
NOT MET
